Measured values drawn from paper PMC11952234 for this set.

Test system: insulin receptor (IR); insulin-induced IR-Rluc/IRS1-YFP BRET in HEK293 cells
Assay: BRET assay of IR activation, peptides combined with insulin
Type: cell-based, human
Details: Average of Experiments 1-7; 1 μM insulin + 0.1 mg/ml peptide, HEK293; minimal data set for Figure 2
Residues, ends and D or L forms follow the SMILES beside them.
Could you please report measured insulin-induced BRET, % of insulin's response in the vehicle, Average for the items listed next?
// return a plain number; no unit text

Return the recorded insulin-induced BRET, % of insulin's response in the vehicle, Average value; entry: CSCC[C@H](NC(=O)[C@H](Cc1c[nH]cn1)NC(=O)[C@H](CS)NC(=O)[C@@H]1CCCN1C(=O)[C@H](CC(C)C)NC(=O)[C@@H]1CCCN1C(=O)[C@@H]1CCCN1C(=O)[C@H](CC(C)C)NC(=O)[C@H](CS)NC(=O)[C@H](CS)NC(=O)[C@H](C)NC(=O)[C@@H](NC(=O)[C@H](C)NC(=O)[C@@H]1CCCN1)C(C)C)C(=O)O [Peptide P2] (H-PAVACCLPPLPCHM-OH; N-terminus and C-terminus assumed) 52.0

Supply recorded insulin-induced BRET, % of insulin's response in the vehicle, Average for CC[C@H](C)[C@H](NC(=O)[C@@H]1CCCN1C(=O)[C@@H](N)Cc1ccc(O)cc1)C(=O)O [Peptide P9, YPI] (H-Tyr-Pro-Ile-OH; N-terminus and C-terminus assumed) here. 108.5

Please give measured insulin-induced BRET, % of insulin's response in the vehicle, Average of the following entry: CC(C)C[C@H](NC(=O)[C@H](Cc1ccccc1)NC(=O)[C@@H]1CCCN1C(=O)[C@H](CCCNC(=N)N)NC(=O)[C@@H](N)CC(C)C)C(=O)O [Peptide P1, LRPFL] (H-LRPFL-OH) 103.6

Look up and state reported insulin-induced BRET, % of insulin's response in the vehicle, Average for CC(C)C[C@H](N)C(=O)N1CCC[C@H]1C(=O)N[C@H](C(=O)N1CCC[C@H]1C(=O)O)C(C)C [Peptide P6, LPVP] (H-LPVP-OH; N-terminus and C-terminus assumed) 140.3

Complete the entry with insulin-induced BRET, % of insulin's response in the vehicle, Average for CC(C)C[C@H](N)C(=O)N1CCC[C@H]1C(=O)N[C@H](C(=O)N1CCC[C@H]1C(=O)N[C@@H](CCC(N)=O)C(=O)O)C(C)C [Peptide P3, LPVPQ] (H-LPVPQ-OH; N-terminus and C-terminus assumed) 110.8

Name the recorded insulin-induced BRET, % of insulin's response in the vehicle, Average of the compound listed here: CC(C)[C@H](N)C(=O)N1CCC[C@H]1C(=O)N[C@@H](Cc1ccccc1)C(=O)O [Peptide P7, VPF] (H-Val-Pro-Phe-OH; N-terminus and C-terminus assumed) 146.7

* * *

Biological target: insulin receptor (IR); interaction of IR-Rluc with IRS1-YFP in HEK293 cells (Homo sapiens)
Construct: expressed in transfected cells; host or cells: HEK293 cells, transient co-transfection; plasmids provided by Dr. Tarik Issad (Cochin Institute, Paris)
Sequence (P06213 28-758 limits assumed): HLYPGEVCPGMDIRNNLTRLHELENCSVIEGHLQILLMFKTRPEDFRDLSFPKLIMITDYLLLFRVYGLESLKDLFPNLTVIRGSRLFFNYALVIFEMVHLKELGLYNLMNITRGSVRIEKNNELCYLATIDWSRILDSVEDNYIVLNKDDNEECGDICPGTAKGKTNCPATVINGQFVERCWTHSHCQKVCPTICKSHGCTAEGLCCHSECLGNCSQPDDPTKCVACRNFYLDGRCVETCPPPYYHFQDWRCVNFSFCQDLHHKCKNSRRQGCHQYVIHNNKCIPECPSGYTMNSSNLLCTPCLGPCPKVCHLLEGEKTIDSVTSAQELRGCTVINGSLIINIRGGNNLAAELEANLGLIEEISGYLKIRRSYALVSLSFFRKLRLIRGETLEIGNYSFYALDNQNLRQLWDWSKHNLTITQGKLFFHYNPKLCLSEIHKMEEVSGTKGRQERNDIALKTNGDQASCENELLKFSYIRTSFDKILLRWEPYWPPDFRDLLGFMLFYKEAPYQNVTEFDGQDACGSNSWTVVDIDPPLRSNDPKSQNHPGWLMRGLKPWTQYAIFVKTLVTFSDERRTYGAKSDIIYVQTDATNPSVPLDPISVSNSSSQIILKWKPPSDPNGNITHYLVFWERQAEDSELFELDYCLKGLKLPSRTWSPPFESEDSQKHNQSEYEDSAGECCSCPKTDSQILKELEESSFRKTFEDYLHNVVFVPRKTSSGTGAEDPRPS
Sequence (P06213 763-1382 limits assumed): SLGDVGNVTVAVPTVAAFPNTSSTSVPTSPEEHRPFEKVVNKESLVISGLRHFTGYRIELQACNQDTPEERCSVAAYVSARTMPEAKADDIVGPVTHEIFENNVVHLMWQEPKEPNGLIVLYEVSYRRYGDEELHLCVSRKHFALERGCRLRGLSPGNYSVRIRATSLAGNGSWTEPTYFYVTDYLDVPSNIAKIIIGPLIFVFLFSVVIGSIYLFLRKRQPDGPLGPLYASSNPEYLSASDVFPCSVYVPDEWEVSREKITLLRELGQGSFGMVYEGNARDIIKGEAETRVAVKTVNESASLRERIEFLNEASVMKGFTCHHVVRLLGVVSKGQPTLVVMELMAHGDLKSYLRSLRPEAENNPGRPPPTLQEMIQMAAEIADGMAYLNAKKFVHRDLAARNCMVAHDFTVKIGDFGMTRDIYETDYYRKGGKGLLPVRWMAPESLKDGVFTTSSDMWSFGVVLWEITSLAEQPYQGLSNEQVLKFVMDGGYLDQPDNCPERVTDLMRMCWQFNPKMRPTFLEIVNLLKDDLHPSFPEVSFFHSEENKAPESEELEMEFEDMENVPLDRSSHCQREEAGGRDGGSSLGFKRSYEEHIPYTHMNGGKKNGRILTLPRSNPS
Assay: BRET assay of IR activation (IR-Rluc/IRS1-YFP), single treatment, dose-response
Type: cell-based
Conditions: HEK293, read-out: BRET, % of the maximal response of insulin, Average, peptide 0.5 mg/ml; HEK293, 1 hour, 37°C; minimal data set for Figure 1, average
Residues, ends and D or L forms follow the SMILES beside them.
Mark YES for reported Emax of 50% or greater; mark NO for anything smaller.

Can CC(C)C[C@H](N)C(=O)N1CCC[C@H]1C(=O)N[C@H](C(=O)N1CCC[C@H]1C(=O)O)C(C)C [Peptide P6, LPVP] (H-LPVP-OH; N-terminus and C-terminus assumed) be said to have Emax at or above 50%? NO

For this compound, is measured Emax 50% or higher? CC[C@H](C)[C@H](NC(=O)[C@@H]1CCCN1C(=O)[C@@H](N)Cc1ccc(O)cc1)C(=O)O [Peptide P9, YPI] (H-Tyr-Pro-Ile-OH; N-terminus and C-terminus assumed) NO

Textbook exercise: given the entry CSCC[C@H](NC(=O)[C@H](Cc1c[nH]cn1)NC(=O)[C@H](CS)NC(=O)[C@@H]1CCCN1C(=O)[C@H](CC(C)C)NC(=O)[C@@H]1CCCN1C(=O)[C@@H]1CCCN1C(=O)[C@H](CC(C)C)NC(=O)[C@H](CS)NC(=O)[C@H](CS)NC(=O)[C@H](C)NC(=O)[C@@H](NC(=O)[C@H](C)NC(=O)[C@@H]1CCCN1)C(C)C)C(=O)O [Peptide P2] (H-PAVACCLPPLPCHM-OH; N-terminus and C-terminus assumed) , state whether its Emax is greater than or equal to 50%. YES

API: above_or_equal(metric=Emax, cutoff=50%) for item CC(C)C[C@H](NC(=O)[C@H](Cc1ccccc1)NC(=O)[C@@H]1CCCN1C(=O)[C@H](CCCNC(=N)N)NC(=O)[C@@H](N)CC(C)C)C(=O)O [Peptide P1, LRPFL] (H-LRPFL-OH) YES

Hi team, for CC(C)C[C@H](N)C(=O)N1CCC[C@H]1C(=O)N[C@H](C(=O)N1CCC[C@H]1C(=O)N[C@@H](CCC(N)=O)C(=O)O)C(C)C [Peptide P3, LPVPQ] (H-LPVPQ-OH; N-terminus and C-terminus assumed) , is the recorded Emax at or above 50%? NO

* * *

Target: insulin receptor (IR); interaction of IR-Rluc with IRS1-YFP in HEK293 cells (Homo sapiens)
Construct: expressed in transfected cells; host or cells: HEK293 cells, transient co-transfection; plasmids provided by Dr. Tarik Issad (Cochin Institute, Paris)
Assay: BRET assay of IR activation (IR-Rluc/IRS1-YFP), single treatment, dose-response
Type: cell-based
Details: HEK293, read-out: BRET, % of the maximal response of insulin, Average, peptide 0.001 mg/ml; HEK293, 1 hour, 37°C; minimal data set for Figure 1, average
Residues, ends and D or L forms follow the SMILES beside them.
PARAMETER_MEASURED: Emax

Please give the documented Emax of CC(C)C[C@H](N)C(=O)N1CCC[C@H]1C(=O)N[C@H](C(=O)N1CCC[C@H]1C(=O)O)C(C)C [Peptide P6, LPVP] (H-LPVP-OH; N-terminus and C-terminus assumed) 18.3%

Determine its reported Emax: CC(C)[C@H](N)C(=O)N1CCC[C@H]1C(=O)N[C@@H](Cc1ccccc1)C(=O)O [Peptide P7, VPF] (H-Val-Pro-Phe-OH; N-terminus and C-terminus assumed) 7.4%

Check the records and state Emax for CC(C)C[C@H](NC(=O)[C@H](Cc1ccccc1)NC(=O)[C@@H]1CCCN1C(=O)[C@H](CCCNC(=N)N)NC(=O)[C@@H](N)CC(C)C)C(=O)O [Peptide P1, LRPFL] (H-LRPFL-OH) 10.1%

Report Emax for CC[C@H](C)[C@H](NC(=O)[C@@H]1CCCN1C(=O)[C@@H](N)Cc1ccc(O)cc1)C(=O)O [Peptide P9, YPI] (H-Tyr-Pro-Ile-OH; N-terminus and C-terminus assumed) 3.3%

Answer with the recorded Emax of CSCC[C@H](NC(=O)[C@H](Cc1c[nH]cn1)NC(=O)[C@H](CS)NC(=O)[C@@H]1CCCN1C(=O)[C@H](CC(C)C)NC(=O)[C@@H]1CCCN1C(=O)[C@@H]1CCCN1C(=O)[C@H](CC(C)C)NC(=O)[C@H](CS)NC(=O)[C@H](CS)NC(=O)[C@H](C)NC(=O)[C@@H](NC(=O)[C@H](C)NC(=O)[C@@H]1CCCN1)C(C)C)C(=O)O [Peptide P2] (H-PAVACCLPPLPCHM-OH; N-terminus and C-terminus assumed) only. 6.9%

Annotate the compound CC(C)C[C@H](N)C(=O)N1CCC[C@H]1C(=O)N[C@H](C(=O)N1CCC[C@H]1C(=O)N[C@@H](CCC(N)=O)C(=O)O)C(C)C [Peptide P3, LPVPQ] (H-LPVPQ-OH; N-terminus and C-terminus assumed) with its measured Emax. 6%

* * *

Target: insulin receptor (IR); interaction of IR-Rluc with IRS1-YFP in HEK293 cells (Homo sapiens)
Construct: expressed in transfected cells; host or cells: HEK293 cells, transient co-transfection; plasmids provided by Dr. Tarik Issad (Cochin Institute, Paris)
Assay: BRET assay of IR activation (IR-Rluc/IRS1-YFP), single treatment, dose-response
Type: cell-based
Conditions: HEK293, read-out: BRET, % of the maximal response of insulin, Average, peptide 0.01 mg/ml; HEK293, 1 hour, 37°C; minimal data set for Figure 1, average
Residues, ends and D or L forms follow the SMILES beside them.
PARAMETER_MEASURED: Emax
Give the figure together with its unit, number first.

State its Emax: CC(C)C[C@H](N)C(=O)N1CCC[C@H]1C(=O)N[C@H](C(=O)N1CCC[C@H]1C(=O)O)C(C)C [Peptide P6, LPVP] (H-LPVP-OH; N-terminus and C-terminus assumed) 35%

Let me know recorded Emax for CC(C)[C@H](N)C(=O)N1CCC[C@H]1C(=O)N[C@@H](Cc1ccccc1)C(=O)O [Peptide P7, VPF] (H-Val-Pro-Phe-OH; N-terminus and C-terminus assumed) , thanks. 31.2%

Look up Emax of CC[C@H](C)[C@H](NC(=O)[C@@H]1CCCN1C(=O)[C@@H](N)Cc1ccc(O)cc1)C(=O)O [Peptide P9, YPI] (H-Tyr-Pro-Ile-OH; N-terminus and C-terminus assumed) and report it. 24.7%

Quote Emax reported for CC(C)C[C@H](NC(=O)[C@H](Cc1ccccc1)NC(=O)[C@@H]1CCCN1C(=O)[C@H](CCCNC(=N)N)NC(=O)[C@@H](N)CC(C)C)C(=O)O [Peptide P1, LRPFL] (H-LRPFL-OH) please. 37.6%
